Origin of the recorded values: PubChem BioAssay AID1159580

experiment: chemical genetic growth profiling, strain panel (AID 1159580);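 note: tested at 20 µM; growth read once vehicle control cultures reached saturation at 30 °C; 1 = growth at the plate median or of vehicle wells; lower values mean less growth of the strain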; conditions: S. cerevisiae deletion strains, growth OD, locus YDR335W, strain msn5, stronger effect = lower value
Hit rate of the full screen: of about 5,500 compounds, about 2,000 (36%) were called active. Inconclusive results (about 18%) are left out. Some of the results follow.
normalized growth reference

INSERT INTO assay_data (input_smiles, result) VALUES
  ('Cn1cc[nH]c1=S', '1 (inactive)'),
  ('CCCCCCCC/C=C/CCCCCCCCOP(=O)([O-])OCC[N+](C)(C)C', '0.0561 (active)'),
  ('COc1ccc(-c2cc(=O)c3c(O)cc(OC)c(OC)c3o2)c(OC)c1', '1.03 (inactive)'),
  ('Cc1cc(C(C)(C)CC(C)(C)C)ccc1OCCOCC[N+](C)(C)Cc1ccccc1', '0.0584 (active)'),
  ('C1CCc2nnnn2CC1', '1.01 (inactive)');

GET /values?readout=normalized growth&item= `c1ccc(CC2=NCCN2)cc1`
1 (inactive)

Give its normalized growth value. Item: `c1ccc(CN(CC2=NCCN2)c2ccccc2)cc1`
1 (inactive)

// query normalized growth value for entry `N#Cc1c(Cl)c(Cl)c(Cl)c(C#N)c1Cl`
0.0699 (active)

GET /values?readout=normalized growth&item= `CC(C)(N=NC(C)(C)C(=N)N)C(=N)N`
1.02 (inactive)

For the compound `CC[C@@H](CO)NCCN[C@@H](CC)CO` , what normalized growth is on record?
1.01 (inactive)
